B1: library; numbered along this chain (parent)
chain: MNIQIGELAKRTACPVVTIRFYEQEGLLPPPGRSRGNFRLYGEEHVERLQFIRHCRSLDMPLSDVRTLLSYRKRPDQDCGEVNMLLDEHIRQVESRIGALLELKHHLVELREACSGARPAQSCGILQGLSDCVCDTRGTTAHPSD

Variants of: B1
Test: sfGFP reporter fluorescence (15 h) (µM FITC); higher = higher leak
Settings: library round: Round 0; ligand: none
The label depends only on sfGFP reporter fluorescence: Yes if it is at least 0.06, No if it is smaller.

Reference set, count: 5
{"Mutation name": "G36S", "Group": "Yes"}
{"Mutation name": "I3Q", "Group": "No"}
{"Mutation name": "M60L D64K K104V G128M", "Group": "Yes"}
{"Mutation name": "E7A", "Group": "No"}
{"Mutation name": "L68W", "Group": "Yes"}

Decide: sfGFP reporter fluorescence of R39H >= 0.06? Yes

Decide: sfGFP reporter fluorescence of C114E >= 0.06? No

Decide: sfGFP reporter fluorescence of R33N >= 0.06? Yes

Decide: sfGFP reporter fluorescence of D131V >= 0.06? Yes

Decide: sfGFP reporter fluorescence of P15H >= 0.06? Yes
